The measured values listed here are drawn from ChEMBL document CHEMBL3046366.

SYSTEM_UNDER_TEST: Tissue factor (Homo sapiens)
Sequence (P13726 whole entry): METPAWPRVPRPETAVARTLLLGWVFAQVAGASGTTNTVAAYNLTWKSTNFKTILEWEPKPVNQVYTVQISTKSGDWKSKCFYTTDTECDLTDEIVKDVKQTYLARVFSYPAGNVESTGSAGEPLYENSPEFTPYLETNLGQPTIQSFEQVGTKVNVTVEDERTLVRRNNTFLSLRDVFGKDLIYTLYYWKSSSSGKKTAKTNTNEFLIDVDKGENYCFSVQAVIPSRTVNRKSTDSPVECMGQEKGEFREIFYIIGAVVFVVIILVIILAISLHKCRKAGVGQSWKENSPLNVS
MEASUREMENT_NOTES: Inhibition of tissue factor in Homo sapiens (human) THP1-cells using factor 10a chromogenic substrate assessed as inhibition of LPS-iduced procoagulant activity incubated for 1 hr prior to LPS-challenge measured after 5 hr by spectrophotometric analysis
REPORTED_CONDITIONS: thp-1
QUANTITY: IC50 (nM)

In: What is its IC50 for Tissue factor (Homo sapiens)? Entry: O=C(/C=C/c1ccccc1)/C=C/c1ccccc1
Out: 0.053

I: O=C1/C(=C/c2ccc(O)cc2)CCC/C1=C\c1ccc(O)cc1
II: COc1ccc(/C=C/C(=O)/C=C/c2ccc(OC)cc2)cc1
In: Lab notebook, comparison: I versus II , higher IC50 goes to which? Which one? Tell me its label.
Out: II
(II: 13.4 nM, I: 0.94 nM)

---

SYSTEM_UNDER_TEST: UniProt P13726
MEASUREMENT_NOTES: Inhibition of tissue factor in Homo sapiens (human) THP1-cells using factor 10a chromogenic substrate assessed as inhibition of LPS-iduced procoagulant activity incubated for 1 hr prior to LPS-challenge measured after 5 hr by spectrophotometric analysis
REPORTED_CONDITIONS: thp-1
QUANTITY: IC50 (nM)

Solved cases (4 shown):
In: // fetch UniProt P13726 IC50 for O=C(/C=C/c1ccccc1)c1ccc(O)cc1 [4'-HYDROXYCHALCONE]
Out: 0.12

In: Report IC50 for O=C1/C(=C/c2ccccc2)CCC/C1=C\c1ccccc1 [2,6-DIBENZYLIDENECYCLOHEXANONE] tested on UniProt P13726.
Out: 0.26

In: Entry COc1ccc(C(=O)/C=C/c2ccc(O)cc2)cc1 , system UniProt P13726: what IC50 was measured?
Out: 142

In: Notebook entry, UniProt P13726 assay: IC50 of COc1ccc(/C=C/C(=O)c2ccc(OC)cc2)cc1 [4,4'-DIMETHOXYCHALCONE] = ?
Out: 15.4

I: O=C(/C=C/c1ccc(O)cc1)c1ccc(O)cc1 [4,4'-DIHYDROXYCHALCONE]
II: O=C(/C=C/c1ccc(O)cc1)/C=C/c1ccc(O)cc1
In: Please tell me which of the two, I or II , has the higher reported IC50 value. Provide the label of your selected option as the answer.
Out: II

---

SYSTEM_UNDER_TEST: Tissue factor (Homo sapiens)
MEASUREMENT_NOTES: Inhibition of tissue factor in Homo sapiens (human) THP1-cells using factor 10a chromogenic substrate assessed as inhibition of LPS-iduced procoagulant activity incubated for 1 hr prior to LPS-challenge measured after 5 hr by spectrophotometric analysis
REPORTED_CONDITIONS: thp-1
QUANTITY: IC50

Field: example entries. Status: answers known.
In: Record request: IC50 value, item COc1cc(/C=C2\CCC/C(=C\c3ccc(O)c(OC)c3)C2=O)ccc1O [CYCLOVALONE]
Out: > 200 nM

In: Recorded IC50 for COc1cc(/C=C/C(=O)/C=C/c2ccc(O)c(OC)c2)ccc1O , please?
Out: > 200 nM

Continuing:
In: Give the measured IC50 of COc1ccc(/C=C2\CCC/C(=C\c3ccc(OC)cc3)C2=O)cc1 .
Out: > 200 nM
